target: ATR kinase (full-length ATR) (Homo sapiens, UniProt Q13535); construct: Assays were carried out at 25° C. in the presence of 5 nM full-length ATR; assay: ATR Inhibition Assay (radioactive-phosphate incorporation); format: biochemical; conditions: Ki(app); 5 nM full-length ATR, 10 μM ATP, 800 μM target peptide, 25° C.; class symbols; read-out: ATR Inhibition Ki
Sequence (Q13535 whole entry): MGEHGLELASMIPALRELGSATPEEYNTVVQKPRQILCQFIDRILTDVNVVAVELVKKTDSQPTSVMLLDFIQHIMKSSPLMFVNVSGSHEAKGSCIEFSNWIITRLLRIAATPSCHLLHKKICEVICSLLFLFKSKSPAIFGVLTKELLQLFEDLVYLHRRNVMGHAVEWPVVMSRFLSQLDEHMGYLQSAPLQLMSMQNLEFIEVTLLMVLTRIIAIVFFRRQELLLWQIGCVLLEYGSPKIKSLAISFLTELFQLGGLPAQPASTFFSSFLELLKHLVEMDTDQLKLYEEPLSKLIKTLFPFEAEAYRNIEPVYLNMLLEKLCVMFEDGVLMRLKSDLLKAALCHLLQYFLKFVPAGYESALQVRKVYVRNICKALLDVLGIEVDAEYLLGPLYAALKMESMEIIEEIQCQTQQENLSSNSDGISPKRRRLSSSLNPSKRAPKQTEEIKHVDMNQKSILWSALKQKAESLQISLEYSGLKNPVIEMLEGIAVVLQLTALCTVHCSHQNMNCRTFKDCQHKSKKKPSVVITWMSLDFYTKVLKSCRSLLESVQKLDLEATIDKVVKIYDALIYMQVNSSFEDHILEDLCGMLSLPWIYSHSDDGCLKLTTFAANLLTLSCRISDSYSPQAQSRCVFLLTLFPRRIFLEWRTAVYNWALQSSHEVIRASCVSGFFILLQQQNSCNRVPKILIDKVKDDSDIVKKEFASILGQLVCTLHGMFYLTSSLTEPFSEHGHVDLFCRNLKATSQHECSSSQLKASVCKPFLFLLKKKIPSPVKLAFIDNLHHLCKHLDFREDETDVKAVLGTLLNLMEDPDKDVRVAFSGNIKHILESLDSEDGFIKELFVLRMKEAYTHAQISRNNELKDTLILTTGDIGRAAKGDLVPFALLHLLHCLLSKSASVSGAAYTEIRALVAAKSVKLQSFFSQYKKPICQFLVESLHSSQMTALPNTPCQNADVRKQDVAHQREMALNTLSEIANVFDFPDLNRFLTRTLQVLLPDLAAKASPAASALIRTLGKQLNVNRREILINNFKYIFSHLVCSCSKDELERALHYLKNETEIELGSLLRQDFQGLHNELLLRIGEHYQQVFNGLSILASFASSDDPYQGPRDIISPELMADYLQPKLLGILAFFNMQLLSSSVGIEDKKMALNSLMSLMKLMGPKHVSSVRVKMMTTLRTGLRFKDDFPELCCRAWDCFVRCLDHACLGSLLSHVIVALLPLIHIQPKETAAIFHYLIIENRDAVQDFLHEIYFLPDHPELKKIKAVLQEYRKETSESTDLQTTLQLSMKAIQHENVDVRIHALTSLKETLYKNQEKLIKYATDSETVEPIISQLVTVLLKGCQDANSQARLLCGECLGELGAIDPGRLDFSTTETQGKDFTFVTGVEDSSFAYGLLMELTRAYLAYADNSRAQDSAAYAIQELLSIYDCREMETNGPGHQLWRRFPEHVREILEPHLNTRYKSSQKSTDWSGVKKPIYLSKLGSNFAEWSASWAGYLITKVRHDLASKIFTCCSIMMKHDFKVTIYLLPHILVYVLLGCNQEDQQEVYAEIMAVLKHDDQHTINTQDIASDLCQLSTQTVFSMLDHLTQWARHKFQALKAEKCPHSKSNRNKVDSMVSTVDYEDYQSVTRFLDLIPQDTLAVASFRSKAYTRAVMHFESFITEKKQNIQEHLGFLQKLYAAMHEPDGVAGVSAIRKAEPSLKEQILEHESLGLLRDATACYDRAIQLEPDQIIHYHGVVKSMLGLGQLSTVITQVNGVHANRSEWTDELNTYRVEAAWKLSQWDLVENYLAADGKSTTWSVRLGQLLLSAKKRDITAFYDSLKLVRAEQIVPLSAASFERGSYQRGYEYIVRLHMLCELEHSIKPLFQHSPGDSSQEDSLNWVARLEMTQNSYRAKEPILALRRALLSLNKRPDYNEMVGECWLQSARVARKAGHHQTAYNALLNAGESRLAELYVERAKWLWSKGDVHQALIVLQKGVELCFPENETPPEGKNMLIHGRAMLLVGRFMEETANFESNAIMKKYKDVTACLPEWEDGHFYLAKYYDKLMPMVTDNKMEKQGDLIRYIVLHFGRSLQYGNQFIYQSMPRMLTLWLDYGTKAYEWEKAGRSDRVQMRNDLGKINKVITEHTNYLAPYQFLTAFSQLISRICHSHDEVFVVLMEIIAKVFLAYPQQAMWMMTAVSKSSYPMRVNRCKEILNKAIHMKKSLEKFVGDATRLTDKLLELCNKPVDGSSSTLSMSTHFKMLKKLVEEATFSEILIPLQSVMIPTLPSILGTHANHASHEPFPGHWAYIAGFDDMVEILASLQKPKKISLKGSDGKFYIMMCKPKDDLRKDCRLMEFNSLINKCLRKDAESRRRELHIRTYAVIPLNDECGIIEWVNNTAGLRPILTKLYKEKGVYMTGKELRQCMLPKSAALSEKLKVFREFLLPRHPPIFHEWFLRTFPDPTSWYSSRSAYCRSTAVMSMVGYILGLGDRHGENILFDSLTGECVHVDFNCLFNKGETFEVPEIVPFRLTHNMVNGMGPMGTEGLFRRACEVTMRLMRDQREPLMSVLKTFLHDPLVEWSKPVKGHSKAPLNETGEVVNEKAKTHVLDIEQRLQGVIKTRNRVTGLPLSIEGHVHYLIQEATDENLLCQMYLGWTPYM
Exercise: state measured Ki for each of the molecules provided.

Answer with reported Ki of `CC(C)S(=O)(=O)c1ccc(-c2cnc3[nH]cc(C(=O)NCC4CCCC4)c3n2)cc1`
0.5 to 5 µM

Answer with reported Ki of `CC[C@@H](CO)NC(=O)c1c[nH]c2ncc(-c3ccc(S(=O)(=O)C(C)C)cc3)nc12`
0.1 to 0.5 µM

Answer with reported Ki of `CC(C)S(=O)(=O)c1ccc(-c2cnc3[nH]cc(C(=O)NCc4ccc(N(C)C)cc4)c3n2)cc1`
< 0.1 µM

Answer with reported Ki of CC(C)S(=O)(=O)c1ccc(-c2cnc3[nH]cc(C(=O)NC(CCO)c4cccc(N)c4)c3n2)cc1 (centres unmarked)
0.1 to 0.5 µM

Answer with reported Ki of `CCN(C(=O)c1c[nH]c2ncc(-c3ccc(S(=O)(=O)C(C)C)cc3)nc12)C1CCCCC1`
0.5 to 5 µM

Answer with reported Ki of CC(C)S(=O)(=O)c1ccc(-c2cnc3[nH]cc(C(=O)NC4CCC(CO)CC4)c3n2)cc1 (centres unmarked)
< 0.1 µM

Answer with reported Ki of `Cc1ccc(F)cc1CNC(=O)c1c[nH]c2ncc(-c3ccc(S(=O)(=O)C(C)C)cc3)nc12`
< 0.1 µM

Answer with reported Ki of CC(C)S(=O)(=O)c1ccc(-c2cnc3[nH]cc(C(=O)NC(CCO)c4ccc(F)cc4)c3n2)cc1 (centres unmarked)
0.1 to 0.5 µM

Answer with reported Ki of `CC(C)S(=O)(=O)c1ccc(-c2cnc3[nH]cc(C(=O)NCc4ccc(N5CCOCC5)cc4)c3n2)cc1`
0.5 to 5 µM

Answer with reported Ki of `Cc1cccnc1CNC(=O)c1c[nH]c2ncc(-c3ccc(S(=O)(=O)C(C)C)cc3)nc12`
0.1 to 0.5 µM

Answer with reported Ki of `Cc1cccc([C@@H](CCO)NC(=O)c2c[nH]c3ncc(-c4ccc(S(=O)(=O)C(C)C)cc4)nc23)c1`
0.1 to 0.5 µM

Answer with reported Ki of `CC(C)S(=O)(=O)c1ccc(-c2cnc3[nH]cc(C(=O)NCc4ccccc4Cl)c3n2)cc1`
< 0.1 µM

Answer with reported Ki of `CC(C)S(=O)(=O)c1ccc(-c2cnc3[nH]cc(C(=O)Nc4ccc(C#N)cc4)c3n2)cc1`
0.5 to 5 µM

Answer with reported Ki of `CCC(CC)NC(=O)c1c[nH]c2ncc(-c3ccc(S(=O)(=O)C(C)C)cc3)nc12`
0.5 to 5 µM

Answer with reported Ki of `CC(C)S(=O)(=O)c1ccc(-c2cnc3[nH]cc(C(=O)N[C@@H](C)CO)c3n2)cc1`
0.1 to 0.5 µM

Answer with reported Ki of `CC(C)S(=O)(=O)c1ccc(-c2cnc3[nH]cc(C(=O)N[C@@H]4c5ccccc5C[C@@H]4O)c3n2)cc1`
0.5 to 5 µM

Answer with reported Ki of `CC(C)S(=O)(=O)c1ccc(-c2cnc3[nH]cc(C(=O)Nc4ccccc4)c3n2)cc1`
< 0.1 µM

Answer with reported Ki of `CCC[C@@H](CO)NC(=O)c1c[nH]c2ncc(-c3ccc(S(=O)(=O)C(C)C)cc3)nc12`
< 0.1 µM

Answer with reported Ki of `CC(C)S(=O)(=O)c1ccc(-c2cnc3[nH]cc(C(=O)N(CCO)c4ccccc4)c3n2)cc1`
0.1 to 0.5 µM

Answer with reported Ki of `CC(C)S(=O)(=O)c1ccc(-c2cnc3[nH]cc(C(=O)Nc4cccc(F)c4)c3n2)cc1`
< 0.1 µM

Answer with reported Ki of `CC(C)S(=O)(=O)c1ccc(-c2cnc3[nH]cc(C(=O)Nc4noc5ccccc45)c3n2)cc1`
< 0.1 µM

Answer with reported Ki of `CC(C)S(=O)(=O)c1ccc(-c2cnc3[nH]cc(C(=O)NOc4ccccc4)c3n2)cc1`
< 0.1 µM

Answer with reported Ki of `CC(C)S(=O)(=O)c1ccc(-c2cnc3[nH]cc(C(=O)Nc4ccc(F)cc4)c3n2)cc1`
0.1 to 0.5 µM

Answer with reported Ki of `CC(C)S(=O)(=O)c1ccc(-c2cnc3[nH]cc(C(=O)N[C@H](C(N)=O)c4ccccc4)c3n2)cc1`
0.1 to 0.5 µM

Answer with reported Ki of `CC(C)S(=O)(=O)c1ccc(-c2cnc3[nH]cc(C(=O)N4CCc5ccccc54)c3n2)cc1`
0.1 to 0.5 µM

Answer with reported Ki of `CC(C)S(=O)(=O)c1ccc(-c2cnc3[nH]cc(C(=O)Nc4cccc(O)c4)c3n2)cc1`
< 0.1 µM

Answer with reported Ki of `CC(C)S(=O)(=O)c1ccc(-c2cnc3[nH]cc(C(=O)N[C@@H](CO)c4ccccc4)c3n2)cc1`
0.1 to 0.5 µM

Answer with reported Ki of `CC(C)S(=O)(=O)c1ccc(-c2cnc3[nH]cc(C(=O)Nc4ccc(CCO)cc4)c3n2)cc1`
< 0.1 µM

Answer with reported Ki of `CC(C)S(=O)(=O)c1ccc(-c2cnc3[nH]cc(C(=O)N(Cc4ccccc4)c4ccccc4)c3n2)cc1`
0.5 to 5 µM

From: patent US9096602B2
